target: rat 11β-HSD1 (Rattus norvegicus, UniProt P16232)
Construct: Rat 11β-HSD1 in liver microsomes catalyzes the conversion of DHC to CORT; from tissue; host or cells: liver microsomes of male Sprague-Dawley rats (age 3 months), prepared in house
Sequence (P16232 whole entry): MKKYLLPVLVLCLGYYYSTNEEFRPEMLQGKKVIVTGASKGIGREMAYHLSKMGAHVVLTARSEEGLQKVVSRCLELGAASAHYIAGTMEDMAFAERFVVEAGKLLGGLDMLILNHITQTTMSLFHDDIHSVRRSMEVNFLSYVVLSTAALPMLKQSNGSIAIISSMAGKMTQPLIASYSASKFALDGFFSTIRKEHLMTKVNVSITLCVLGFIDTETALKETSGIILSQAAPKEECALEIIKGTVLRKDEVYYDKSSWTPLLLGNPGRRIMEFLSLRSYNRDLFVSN
protocol.text: Rat 11β-HSD1 assay in rat liver microsomes (DHC to CORT, HPLC-MS/MS)
Format: biochemical
particulars: rat liver microsomes, 200 nM DHC, 15 min; Mean ± SEM, n = 4; read-out: IC50
readout: pIC50
# reply with the number alone; pIC50 is -log10 of concentration in mol/L

Return reported pIC50; argument: COc1ccc(C(C)(C)c2ccc(OC)cc2)cc1
3.69

###

target: human 11β-HSD1 (Homo sapiens, UniProt P28845)
Construct: Human 11β-HSD1 in liver microsomes catalyzes the conversion of cortisone to cortisol; tissue Iphase (Beijing, China) H2610; host or cells: human liver microsomes (purchased)
Sequence (P28845 whole entry): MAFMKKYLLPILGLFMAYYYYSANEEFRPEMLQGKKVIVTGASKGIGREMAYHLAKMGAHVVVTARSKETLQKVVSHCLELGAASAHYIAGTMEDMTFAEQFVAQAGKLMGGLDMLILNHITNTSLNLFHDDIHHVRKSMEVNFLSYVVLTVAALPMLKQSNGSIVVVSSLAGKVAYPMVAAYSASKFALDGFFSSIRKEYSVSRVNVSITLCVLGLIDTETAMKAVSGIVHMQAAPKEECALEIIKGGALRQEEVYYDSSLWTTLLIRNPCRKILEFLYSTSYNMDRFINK
protocol.text: Human 11β-HSD1 assay in human liver microsomes (cortisone to cortisol, HPLC-MS/MS)
Format: biochemical
particulars: human liver microsomes, 200 nM cortisone, 15 min; Mean ± SEM, n = 4; read-out: IC50
Each item that follows carries a reported pIC50.
# reply with the number alone; pIC50 is -log10 of concentration in mol/L

Return reported pIC50; argument: Cc1cc(C(C)(C)c2cc(C)c(O)c(C)c2)cc(C)c1O
3.50

Return reported pIC50; argument: COc1ccc(C(C)(C)c2ccc(OC)cc2)cc1
4.48

###

target: human 11β-HSD1 (Homo sapiens)
Construct: Human 11β-HSD1 in liver microsomes catalyzes the conversion of cortisone to cortisol; tissue Iphase (Beijing, China) H2610; host or cells: human liver microsomes (purchased)
protocol.text: Human 11β-HSD1 assay in human liver microsomes (cortisone to cortisol, HPLC-MS/MS)
Type: biochemical
particulars: human, 100 µM compound, 200 nM cortisone, 15 min; read-out: 11β-HSD1 residual activity relative to the control (DMSO)
Each item that follows carries a reported remaining activity at 100 µM.

compound=CC(C)c1cc(C(C)(C)c2ccc(O)c(C(C)C)c2)ccc1O result="≤ 50%"
compound=Cc1cc(C(C)(C)c2cc(C)c(O)c(C)c2)cc(C)c1O result="> 50%"
compound=C=CCc1cc(C(C)(C)c2ccc(O)c(CC=C)c2)ccc1O result="≤ 50%"
compound=COc1ccc(C(C)(C)c2ccc(OC)cc2)cc1 result="≤ 50%"
compound="CC(C)(c1ccc(O)cc1)c1ccc(O)cc1 [BPA, bisphenol A, reference compound]" result="> 50%"

Request body: readout remaining activity at 100 µM, system human 11β-HSD1 (Homo sapiens), query Cc1cc(C(C)(C)c2ccc(O)c(C)c2)ccc1O [DMBPA, 2,2-bis(4-hydroxy-3-methylphenyl)propane] . Return the value.
≤ 50%

Request body: readout remaining activity at 100 µM, system human 11β-HSD1 (Homo sapiens), query CC(C)(c1ccc(O)c(-c2ccccc2)c1)c1ccc(O)c(-c2ccccc2)c1 [BPH, 2,2-bis(2-hydroxy-5-biphenylyl)propane] . Return the value.
≤ 50%

###

target: human 11β-HSD1 (Homo sapiens)
Construct: Human 11β-HSD1 in liver microsomes catalyzes the conversion of cortisone to cortisol; tissue Iphase (Beijing, China) H2610; host or cells: human liver microsomes (purchased)
protocol.text: Human 11β-HSD1 assay in human liver microsomes (cortisone to cortisol, HPLC-MS/MS)
Assay type: biochemical
particulars: IC50, human liver microsomes, 200 nM cortisone, 15 min; Mean ± SEM, n = 4
Response field label: string, one of fulfilled (IC50 strictly below 10 µM) or not fulfilled.

Answered examples (4):
compound=CC(C)c1cc(C(C)(C)c2ccc(O)c(C(C)C)c2)ccc1O target="human 11β-HSD1 (Homo sapiens)" discrete_label=fulfilled
compound="CC(C)(c1ccc(O)cc1)c1ccc(O)cc1 [BPA, bisphenol A, reference compound]" target="human 11β-HSD1 (Homo sapiens)" discrete_label="not fulfilled"
compound="CC(C)(c1ccc(O)c(-c2ccccc2)c1)c1ccc(O)c(-c2ccccc2)c1 [BPH, 2,2-bis(2-hydroxy-5-biphenylyl)propane]" target="human 11β-HSD1 (Homo sapiens)" discrete_label=fulfilled
compound=C=CCc1cc(C(C)(C)c2ccc(O)c(CC=C)c2)ccc1O target="human 11β-HSD1 (Homo sapiens)" discrete_label="not fulfilled"

Please find the next compound below.
Lab note: IC50 threshold 10 µM. Does this compound come in strictly under it? Cc1cc(C(C)(C)c2ccc(O)c(C)c2)ccc1O [DMBPA, 2,2-bis(4-hydroxy-3-methylphenyl)propane]
not fulfilled

###

target: human 11β-HSD1 (Homo sapiens, UniProt P28845)
Construct: Human 11β-HSD1 in liver microsomes catalyzes the conversion of cortisone to cortisol; tissue Iphase (Beijing, China) H2610; host or cells: human liver microsomes (purchased)
protocol.text: Human 11β-HSD1 assay in human liver microsomes (cortisone to cortisol, HPLC-MS/MS)
Format: biochemical
particulars: human liver microsomes, enzyme kinetics-inhibition (mixed model); read-out: Ki (inhibition constant, measured)
readout: Ki (µM)
Give the value in µM but do not write µM after it.

Return reported Ki; argument: COc1ccc(C(C)(C)c2ccc(OC)cc2)cc1
33.8

###

target: rat 11β-HSD1 (Rattus norvegicus, UniProt P16232)
Construct: Rat 11β-HSD1 in liver microsomes catalyzes the conversion of DHC to CORT; from tissue; host or cells: liver microsomes of male Sprague-Dawley rats (age 3 months), prepared in house
protocol.text: Rat 11β-HSD1 assay in rat liver microsomes (DHC to CORT, HPLC-MS/MS)
Format: biochemical
readout: pIC50
# reply with the number alone; pIC50 is -log10 of concentration in mol/L

compound="C=CCc1cc(C(C)(C)c2ccc(O)c(CC=C)c2)ccc1O [DABPA, 2,2′-diallyl BPA]" target="rat 11β-HSD1 (Rattus norvegicus, UniProt P16232)" numeric_result=3.88
compound="CC(C)(c1ccc(O)c(-c2ccccc2)c1)c1ccc(O)c(-c2ccccc2)c1 [BPH, 2,2-bis(2-hydroxy-5-biphenylyl)propane]" target="rat 11β-HSD1 (Rattus norvegicus, UniProt P16232)" numeric_result=4.13

Request body: readout pIC50, system rat 11β-HSD1 (Rattus norvegicus, UniProt P16232), query CC(C)(c1ccc(O)cc1)c1ccc(O)cc1 [BPA, bisphenol A, reference compound] . Return the value.
4.43

Request body: readout pIC50, system rat 11β-HSD1 (Rattus norvegicus, UniProt P16232), query CC(C)c1cc(C(C)(C)c2ccc(O)c(C(C)C)c2)ccc1O [BPG] . Return the value.
3.98

###

target: human 11β-HSD1 (Homo sapiens)
Construct: Human 11β-HSD1 in liver microsomes catalyzes the conversion of cortisone to cortisol; tissue Iphase (Beijing, China) H2610; host or cells: human liver microsomes (purchased)
protocol.text: Human 11β-HSD1 assay in human liver microsomes (cortisone to cortisol, HPLC-MS/MS)
Assay type: biochemical
Each item that follows carries a reported Ki.
Give the value in µM but do not write µM after it.

Example entries begin here.
compound="CC(C)(c1ccc(O)c(-c2ccccc2)c1)c1ccc(O)c(-c2ccccc2)c1 [BPH, 2,2-bis(2-hydroxy-5-biphenylyl)propane]" readout=Ki unit_abbrev=µM numeric_result=0.44
compound="C=CCc1cc(C(C)(C)c2ccc(O)c(CC=C)c2)ccc1O [DABPA, 2,2′-diallyl BPA]" readout=Ki unit_abbrev=µM numeric_result=14
compound="CC(C)c1cc(C(C)(C)c2ccc(O)c(C(C)C)c2)ccc1O [BPG]" readout=Ki unit_abbrev=µM numeric_result=5.33

Now let's try a different one.
Return reported Ki; argument: Cc1cc(C(C)(C)c2ccc(O)c(C)c2)ccc1O [DMBPA, 2,2-bis(4-hydroxy-3-methylphenyl)propane]
31

###

target: rat 11β-HSD1 (Rattus norvegicus)
readout: pKi
# reply with the number alone; pKi is -log10 of concentration in mol/L

compound="CC(C)(c1ccc(O)c(-c2ccccc2)c1)c1ccc(O)c(-c2ccccc2)c1 [BPH, 2,2-bis(2-hydroxy-5-biphenylyl)propane]" numeric_result=4.13

Now let's try a different one.
Return reported pKi; argument: CC(C)c1cc(C(C)(C)c2ccc(O)c(C(C)C)c2)ccc1O [BPG]
4.05

###

target: rat 11β-HSD1 (Rattus norvegicus)
Construct: Rat 11β-HSD1 in liver microsomes catalyzes the conversion of DHC to CORT; from tissue; host or cells: liver microsomes of male Sprague-Dawley rats (age 3 months), prepared in house
protocol.text: Rat 11β-HSD1 assay in rat liver microsomes (DHC to CORT, HPLC-MS/MS)
Assay type: biochemical
particulars: rat, 100 µM compound, 200 nM DHC, 15 min; read-out: 11β-HSD1 residual activity relative to the control (DMSO)
Each item that follows carries a reported remaining activity at 100 µM.

Example entries begin here.
compound="Cc1cc(C(C)(C)c2ccc(O)c(C)c2)ccc1O [DMBPA, 2,2-bis(4-hydroxy-3-methylphenyl)propane]" target="rat 11β-HSD1 (Rattus norvegicus)" result="> 50%"
compound=C=CCc1cc(C(C)(C)c2ccc(O)c(CC=C)c2)ccc1O target="rat 11β-HSD1 (Rattus norvegicus)" result="> 50%"

Request body: readout remaining activity at 100 µM, system rat 11β-HSD1 (Rattus norvegicus), query CC(C)c1cc(C(C)(C)c2ccc(O)c(C(C)C)c2)ccc1O . Return the value.
≤ 50%

Request body: readout remaining activity at 100 µM, system rat 11β-HSD1 (Rattus norvegicus), query CC(C)(c1ccc(O)c(-c2ccccc2)c1)c1ccc(O)c(-c2ccccc2)c1 [BPH, 2,2-bis(2-hydroxy-5-biphenylyl)propane] . Return the value.
≤ 50%

Request body: readout remaining activity at 100 µM, system rat 11β-HSD1 (Rattus norvegicus), query COc1ccc(C(C)(C)c2ccc(OC)cc2)cc1 . Return the value.
> 50%

Request body: readout remaining activity at 100 µM, system rat 11β-HSD1 (Rattus norvegicus), query CC(C)(c1ccc(O)cc1)c1ccc(O)cc1 [BPA, bisphenol A, reference compound] . Return the value.
≤ 50%
